Every entry's value here was drawn from patent US20040171086A1.

biological target: TLR7 (Homo sapiens); assay: NFκB-luciferase reporter assay in HEK293 cells transfected with human TLR7 (HEK293-TLR7); assay type: cell-based; set-up: expressed in transfected cells; host or cells: HEK293 (ATCC CRL-1573), pIRES vector, G-418 selected; conditions: HEK293-TLR7, 10 μM IRM, 16 hours
Sequence (Q9NYK1 27-1049): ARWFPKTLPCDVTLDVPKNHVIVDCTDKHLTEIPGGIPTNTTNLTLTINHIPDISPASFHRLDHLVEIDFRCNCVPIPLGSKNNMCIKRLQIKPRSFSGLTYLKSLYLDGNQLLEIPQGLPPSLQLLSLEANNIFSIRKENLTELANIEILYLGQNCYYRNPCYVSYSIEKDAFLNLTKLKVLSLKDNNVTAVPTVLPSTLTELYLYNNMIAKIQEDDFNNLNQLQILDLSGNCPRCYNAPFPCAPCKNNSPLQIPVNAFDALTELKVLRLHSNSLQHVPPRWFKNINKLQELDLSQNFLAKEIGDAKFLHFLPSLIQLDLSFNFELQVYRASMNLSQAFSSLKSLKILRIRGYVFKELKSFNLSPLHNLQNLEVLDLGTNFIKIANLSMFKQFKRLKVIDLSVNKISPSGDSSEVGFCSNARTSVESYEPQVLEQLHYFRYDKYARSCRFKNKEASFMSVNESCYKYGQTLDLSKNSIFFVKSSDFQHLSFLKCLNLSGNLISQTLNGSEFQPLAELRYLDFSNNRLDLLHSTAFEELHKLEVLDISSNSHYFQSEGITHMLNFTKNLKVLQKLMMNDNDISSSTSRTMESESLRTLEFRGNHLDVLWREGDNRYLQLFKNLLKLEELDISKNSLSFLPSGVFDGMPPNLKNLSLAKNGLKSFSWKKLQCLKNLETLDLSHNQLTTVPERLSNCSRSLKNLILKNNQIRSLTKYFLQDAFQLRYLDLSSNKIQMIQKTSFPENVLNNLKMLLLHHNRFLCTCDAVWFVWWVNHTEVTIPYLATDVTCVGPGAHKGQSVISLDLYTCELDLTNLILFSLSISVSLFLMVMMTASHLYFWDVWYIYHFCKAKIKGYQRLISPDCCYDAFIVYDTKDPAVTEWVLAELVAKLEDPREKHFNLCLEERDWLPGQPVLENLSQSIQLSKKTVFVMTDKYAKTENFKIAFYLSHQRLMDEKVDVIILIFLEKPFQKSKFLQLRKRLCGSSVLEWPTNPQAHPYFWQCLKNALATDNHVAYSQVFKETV
Each entry below carries its recorded TLR7: fold increase of NFκB-induced luciferase signal compared to a DMSO control.
State just the number; it will be interpreted in fold increase.

Worked set:
Prompt line: Name the recorded TLR7: fold increase of NFκB-induced luciferase signal compared to a DMSO control for CCc1nc2c(N)nc3ccccc3c2n1CCCCNC(=O)C1CCCCC1 [IRM8] .
Response line: 6.04

Prompt line: Do the same for COCCc1nc2c(N)nc3c(c2n1CC(C)(C)NS(C)(=O)=O)CCCC3 [IRM22] please
Response line: 6.57

Prompt line: Do the same for COCCc1nc2c(N)nc3ccccc3c2n1CCOCCN(C)C(=O)C1CCCCC1 [IRM3] please
Response line: 6.37

Prompt line: Do the same for COCCc1nc2c(N)nc3ccccc3c2n1CCCNS(=O)(=O)c1ccc(C)cc1 [IRM7] please
Response line: 6.22

Prompt line: Do the same for COCCc1nc2c(N)nc3ccccc3c2n1CCOCCNC(=O)Nc1ccccc1 [IRM19] please
Response line: 2.45

Prompt line: Do the same for Nc1nc2ccccc2c2c1ncn2CCCCNC(=O)c1ccccc1Oc1ccccc1 [IRM11] please
Response line: 1.44

Prompt line: Do the same for COCCc1nc2c(N)nc3ccccc3c2n1CCCCCCCCNC(=O)Nc1ccccc1 [IRM5] please
Response line: 3.38

Prompt line: Do the same for CCC(C)NC(=S)NCCn1c(CCOC)nc2c(N)nc3ccccc3c21 (stereo not shown) [IRM21] please
Response line: 7.08

Next:
Prompt line: Name the recorded TLR7: fold increase of NFκB-induced luciferase signal compared to a DMSO control for COCCc1nc2c(N)nc3ccccc3c2n1CC(C)(C)O [IRM17] .
Response line: 2.53

Prompt line: Do the same for CCCCc1nc2c(N)nc(C)c(C)c2n1CC(C)(C)O [IRM18] please
Response line: 5.06
